# testedOn: Adenosine receptor A3 (Homo sapiens, UniProt P0DMS8)
# Sequence (P0DMS8 whole entry): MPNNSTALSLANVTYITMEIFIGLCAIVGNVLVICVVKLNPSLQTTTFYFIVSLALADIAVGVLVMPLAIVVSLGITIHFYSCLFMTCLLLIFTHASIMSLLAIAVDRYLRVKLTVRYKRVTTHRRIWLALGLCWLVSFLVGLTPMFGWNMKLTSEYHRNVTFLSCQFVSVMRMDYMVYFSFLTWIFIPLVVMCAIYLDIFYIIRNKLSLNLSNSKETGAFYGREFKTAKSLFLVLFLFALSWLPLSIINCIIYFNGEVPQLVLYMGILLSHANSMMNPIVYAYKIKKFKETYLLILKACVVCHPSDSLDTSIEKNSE
outcomeMeasure: Ki

What value of Ki has been recorded for this entry: Nc1nc2c(cnn2CCc2ccccc2)c2nc(-c3ccco3)nn12
> 10 µM
